# test-system: histamine H4 receptor (Homo sapiens, UniProt Q9H3N8)
# Construct: expressed in transfected cells
# protocol-notes: In vitro histamine H4 potency in FLIPR (Ca2+ flux, HEK-293 cells coexpressing Gαqi5)
# Type: cell-based
# conditions-used: Kb values for antagonists and inverse agonists; block of histamine-induced fluorescence
readout-label: Potency (µM)

record-smiles | unit-name | Potency
Nc1nccc(NCCNc2cc(/C=C/c3ccccc3)nc(N)n2)n1 | µM | 0.085
Nc1nccc(NCCNc2cc(-c3cccc(Cl)c3)nc(N)n2)n1 | µM | 0.0025
Nc1ccnc(NCCNc2nc(N)nc3c2CCCc2ccccc2-3)n1 | µM | 1.349

1. CN(CCNc1ccnc(N)n1)c1nc(N)nc2c1CCCc1ccccc1-2
2. Nc1nccc(NCCNc2cc(-c3ccccc3)nc(N)n2)n1
3. Nc1nccc(NCCNc2nc(N)nc3c2CCCc2ccccc2-3)n1
4. Nc1nccc(NCCNc2ncnc3c2oc2ccccc23)n1
5. Nc1nccc(NCCNc2cc(-c3cc(Cl)cc(Cl)c3)nc(N)n2)n1
Sort ascending by Potency. List labels; respect the requested ordering.
2, 1, 5, 3, 4

A. Nc1nccc(NCCNc2nc(N)nc3c2CCCC32CCCC2)n1
B. Nc1nccc(NCCCNc2nc(N)nc3c2CCCc2ccccc2-3)n1
Given the listed records, identify the one among A and B with higher Potency. Kindly give the label for the entry you pick.
B

* * *

Quick record of pKi values for histamine H4 receptor (Homo sapiens).
pKi: −log10 of the molar value.
readout-label: pKi

I. Nc1nccc(NCCNc2cc(-c3cccc(Cl)c3)nc(N)n2)n1
II. CN(CCNc1ccnc(N)n1)c1nc(N)nc2c1CCCc1ccccc1-2
// which entry has the larger pKi value, I or II ? Answer format: the label of the selected item.
II
(II: 8.46, I: 8.18)

* * *

# test-system: histamine H4 receptor (Homo sapiens)
# Construct: expressed in transfected cells
# protocol-notes: In vitro histamine H4 potency in FLIPR (Ca2+ flux, HEK-293 cells coexpressing Gαqi5)
# Assay type: cell-based
# conditions-used: EC50 values for partial agonists
readout-label: EC50 (nM)
Value expressed in nM; do not type the unit.

EC50 lookup needed for Nc1nccc(NCCNc2nc(N)nc3c2CCCC(c2ccccc2)C3)n1 (stereo not shown) [Example 11] , thanks.
2340
